test-system: ATRIA (Cavia porcellus)
Construct: ATRIA; from tissue
Sequence (H0W3H1 1-470): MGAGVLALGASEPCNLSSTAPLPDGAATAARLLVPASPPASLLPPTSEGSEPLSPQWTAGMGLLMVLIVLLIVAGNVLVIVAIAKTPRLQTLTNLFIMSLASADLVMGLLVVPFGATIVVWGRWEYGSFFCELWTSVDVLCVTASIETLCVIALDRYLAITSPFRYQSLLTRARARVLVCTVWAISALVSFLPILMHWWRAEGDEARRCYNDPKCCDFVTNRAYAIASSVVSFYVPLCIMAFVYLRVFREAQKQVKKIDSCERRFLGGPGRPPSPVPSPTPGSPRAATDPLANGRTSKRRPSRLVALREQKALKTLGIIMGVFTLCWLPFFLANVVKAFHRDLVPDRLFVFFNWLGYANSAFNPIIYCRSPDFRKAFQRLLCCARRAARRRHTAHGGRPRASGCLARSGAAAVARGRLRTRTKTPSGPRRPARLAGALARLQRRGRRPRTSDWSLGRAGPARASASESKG
test: In vitro potency (pA2), beta-blocking, atria
Format: cell-based
measurement-context: Table 3; atria; read-out: pA2 ATRIA (converted)
readout-name: Kb (nM)

compound	assay-value
Cc1cc(O)c(O)cc1C(=O)OCC(O)CNC(C)(C)CNC(=O)C1CC1 (stereo not drawn)	20
CCOc1cc(O)c(O)cc1C(=O)OCC(O)CNC(C)(C)CNC(=O)C(C)C (stereo not drawn) [drawing 32]	20
Cc1cc(O)c(O)cc1C(=O)OCC(O)CNC(C)(C)CNC(=O)Cc1ccccc1 (stereo not drawn)	100
Cc1cc(O)c(O)cc1C(=O)OCC(O)CNC(C)(C)CNC(=O)c1ccccc1 (stereo not drawn)	20
CC(=O)NCC(C)(C)NCC(O)COC(=O)c1cc(O)c(O)cc1C (stereo not drawn) [Me CH3]	25.1

a = COc1cc(O)c(O)cc1C(=O)OCC(O)CNC(C)(C)CNC(=O)C(C)C (stereo not drawn) [drawing 30]
b = COc1cc(O)c(O)cc1C(=O)OCC(O)CNC(C)(C)CNC(=O)C1CCCCC1 (stereo not drawn)
Lookup: Pick one, a or b : lowest reported Kb. The response must carry the label of the picked entry.
Found: a

P = Cc1cc(O)c(O)cc1C(=O)OCC(O)CNC(C)(C)CNC(=O)c1ccccc1F (stereo not drawn)
Q = CCC(=O)NCC(C)(C)NCC(O)COC(=O)c1cc(O)c(O)cc1C (stereo not drawn)
Lookup: Between the entries labelled P and Q , which has a larger Kb value on record? Selection: enter the item's label.
Found: P

P = COc1ccccc1C(=O)NCC(C)(C)NCC(O)COC(=O)c1cc(O)c(O)cc1C (stereo not drawn)
Q = Cc1cc(O)c(O)cc1C(=O)OCC(O)CNC(C)(C)CNC(=O)C1CCC1 (stereo not drawn)
Lookup: For the pair P and Q , which entry has the numerically smaller recorded Kb? Select an item and report its label.
Found: Q
(Q: 5.01 nM, P: 398 nM)

---

test: Ocular bioavailability in rabbits
Type: in vivo, New Zealand White Rabbits
measurement-context: rabbit, aqueous humor, topical or ocular; AH; 0.25% Timolol or 0.5% compound 1; read-out: Time of peak level in aqueous humor (AH) (converted)
readout-name: Tmax (min)

compound	Tmax (min)
Cc1cc(O)c(O)cc1C(=O)OCC(CNC(C)(C)CNC(=O)C1CCOC1)OC(=O)C(C)(C)C (centres unmarked)	30
CC(C)(C)NC[C@H](O)COc1nsnc1N1CCOCC1 [Timolol, reference compound]	30

---

test-system: ATRIA (Cavia porcellus)
Construct: ATRIA; from tissue
test: In vitro potency (pA2), beta-blocking, atria
Format: cell-based
measurement-context: Table 3; atria; read-out: pA2 ATRIA (converted)
readout-name: Kb (nM)

a = Cc1cc(O)c(O)cc1C(=O)OCC(O)CNC(C)(C)CNC(=O)c1ccoc1 (stereo not shown)
b = CC(C)(CNC(=O)C1CCCCC1)NCC(O)COC(=O)c1ccc(O)c(O)c1 (stereo not shown)
Lookup: Identify the entry with the smaller Kb: a or b . I would appreciate it if you answered with the label of your choice.
Found: b

P = COc1ccc(C(=O)NCC(C)(C)NCC(O)COC(=O)c2cc(O)c(O)cc2C)cc1 (stereo not shown)
Q = CCCC(=O)NCC(C)(C)NCC(O)COC(=O)c1cc(O)c(O)cc1C (stereo not shown)
Lookup: Hi! Which is lower in terms of Kb, the first one P or the second one Q ? Respond with the label that goes with your answer.
Found: Q
(Q: 6.31 nM, P: 31.6 nM)

P = Cc1cc(O)c(O)cc1C(=O)OCC(O)CNC(C)(C)CNC(N)=O (stereo not shown)
Q = CC(C)C(=O)NCC(C)(C)NCC(O)COC(=O)c1cc(O)c(O)cc1N (stereo not shown)
Lookup: # argmax over Kb for candidates P and Q In your reply, give the label of the chosen option.
Found: Q

Data origin: patent US4966914A
